tested on: SK-OV-3; assay: Cytotoxicity against human SK-OV-3 cells over expressing MDR1-6/6 assessed as reduction in cell viability by Sulforhodamine B assay; assay type: functional, cell-based
MEASUREMENT_KIND: pIC50
Answers are plain numbers, as −log10 of the molar value.

CSc1ccc(N(C)c2nc(Cl)nc3ccccc23)cc1	8.46
COc1cccc2cc(N(C)c3nc(Cl)nc4ccccc34)ccc12	8.59
COc1ccc(N(C)c2nc(C)nc3ccccc23)cc1	8.59
COc1ccc(N(C)c2ncnc3ccccc23)cc1	7.84

State recorded pIC50 for all listed molecules.
1. COc1ccc2c(c1)CCCN2c1nc(Cl)nc2ccccc12
2. CSc1ccc(N(C)c2ncnc3ccccc23)cc1
3. COc1cccc2cc(N(C)c3nc(C)nc4ccccc34)ccc12
4. COc1ccc2c(c1)CCCN2c1nc(C)nc2ccccc12
5. COc1ccc2c(c1)CCCN2c1ncnc2ccccc12

*A*
[9.00, 7.81, 8.46, 8.66, 7.63]
